- TARGET UNDER TEST: T1, PDZ domain of mitochondrial outer membrane protein 25 (mammalian (so in the source)) (UniProt P57105)
- T1 sequence (looked up): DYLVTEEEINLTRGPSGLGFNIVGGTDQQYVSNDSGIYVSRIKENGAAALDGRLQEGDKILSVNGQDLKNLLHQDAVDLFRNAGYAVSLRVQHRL
- TEST NAME: indirect ELISA, wild type PDZ coated
READOUT KIND: WT ELISA affinity (LogIC50 (oD450nm))
Give the figure by itself; no unit, no explanation.

Known results for binders:
BINDER	WT ELISA affinity (LogIC50 (oD450nm))
P3 (VHH) VHH: DVQLVESGGGLVQAGGSLRLSCAASGRTFSSYTMGWFHQAPGKEREFVAEIGGTGGNTGYADSVKGRFTISRDNAKNTVYLQMNSLKPEDTAVYYCAAVIGSPTDSSDYRSSLDYDYWGQGTQVTVSE	5.26
P4 (VHH) VHH: HVQLVESGGGLVQAGGSLRLSCAAAGRTSSDYAMGWFRQAPGKEREFVSAINWSGISTYYADSVKGRFTISRDNAKNTVHLQMNSLKPEDTAVYYCAAEKLESLRNWHDPLMYDYWGQGTQVTVSE	4.42
P6 (VHH) VHH: HVQLVESGGGLVQAGGSLRLSCAASGRTFSRYTMGWFHQAPGKEREFVAEISGTGGNTGYADSVKGRFTMSRDNAKNTVYLQMNSLKPEDTGVYYCAAVIGSPTDSSDYRSSLDYDYWGQGTQVTVSE	5.25

Kindly review the next binder as well.
**Query** Recorded WT ELISA affinity (LogIC50 (oD450nm)) for P5 (VHH) VHH: DVQLVESGGGLVQAGDSLRLSCAASGITFRWYTMAWFRQAPGKERDFVATINWSGSDTNYADSVKGRFTISRDNAKNTVTLQMNSLQPEDTAVYYCAGVPGTSLSGETDPRDYDYWGQGTQVTVSE , please?
**Result** 4.7
